For each of the compounds below, state its combination Emax.
- Test system: CADO-ES1 (Ewing's Sarcoma)
- TEST_SUMMARY: combination Emax (second highest fraction inhibited in the dose matrix, 72 h); higher = more inhibition; extreme values may be limits of the assay
Give bare numbers.

NC1(C(=O)N[C@@H](CCO)c2ccc(Cl)cc2)CCN(c2ncnc3[nH]ccc23)CC1 [Capivasertib] + COc1nnc2ccc(N3CCC(c4ccc(OCCN5CCN(C)C(=O)[C@H]5C)cc4)CC3)nn12 [AZD5153] (first compound max 10 µM, 7x7, partner max 1 µM)    0.356
CC1(C)CCC(CN2CCN(c3ccc(C(=O)NS(=O)(=O)c4ccc(NCC5CCOCC5)c([N+](=O)[O-])c4)c(Oc4cnc5[nH]ccc5c4)c3)CC2)=C(c2ccc(Cl)cc2)C1 [Venetoclax] + C[C@@H](Nc1cc(F)cc(F)c1)c1cc(C(=O)N(C)C)cc2c(=O)cc(N3CCOCC3)oc12 [AZD8186] (first compound max 1 µM, 7x7, partner max 3 µM)    0.625
COc1nnc2ccc(N3CCC(c4ccc(OCCN5CCN(C)C(=O)[C@H]5C)cc4)CC3)nn12 [AZD5153] + Cn1cnc2c(F)c(Nc3ccc(Br)cc3Cl)c(C(=O)NOCCO)cc21 [Selumetinib] (first compound max 1 µM, 7x7, partner max 10 µM)    0.444
Cc1c2c(nn1C)CSCc1cc(n(C)n1)CSc1cc(c3ccccc3c1)OCCCc1c(C(=O)O)n(C)c3c-2c(Cl)ccc13 [AZD5991] + C[C@@H](Nc1cc(F)cc(F)c1)c1cc(C(=O)N(C)C)cc2c(=O)cc(N3CCOCC3)oc12 [AZD8186] (first compound max 1 µM, 7x7, partner max 3 µM)    0.918

Batch request: combination Emax for each of the following compounds.
1. COc1nnc2ccc(N3CCC(c4ccc(OCCN5CCN(C)C(=O)[C@H]5C)cc4)CC3)nn12 [AZD5153] + C=CCn1c(=O)c2cnc(Nc3ccc(N4CCN(C)CC4)cc3)nc2n1-c1cccc(C(C)(C)O)n1 [AZD1775] (first compound max 1 µM, partner max 1 µM)
2. Cn1cnc2c(F)c(Nc3ccc(Br)cc3Cl)c(C(=O)NOCCO)cc21 [Selumetinib] + CCN(CCO)CCCOc1ccc2c(Nc3cc(CC(=O)Nc4cccc(F)c4)[nH]n3)ncnc2c1 [AZD2811] (first compound max 10 µM, 7x7, partner max 1 µM)

(A)
0.387
0.276

(Q) Look up combination Emax: COc1cccc(OCCCN)c1-c1cc(Nc2cnc(C#N)cn2)n[nH]1 [Prexasertib] + CN(C)CCCOc1ccc(-c2ccc3ncc4c(c3c2)n(C2CCOCC2)c(=O)n4C)cn1 [AZD0156] (first compound max 1 µM, 7x7, partner max 1 µM)
(A) 0.956
